# Test system: CSF-infiltrating CD4+ T cells from MS patients
# COND: peptide 10 μM; 105 MS patients; patient positive if mean SI of four wells ≥2 and at least 3 of four wells SI≥2
READOUT LABEL: Positive patients % Proliferation

[ask] Which Positive patients % Proliferation value is on record for FRFTPFKQAVKETCA (listed as Homo sapiens) [GDP-L-FS (296-310)] ?
[reply] 4.76%

[ask] Which Positive patients % Proliferation value is on record for TAQTRALFEKVQPTH (listed as Homo sapiens) [GDP-L-FS (51-65)] ?
[reply] 3.80%

[ask] Which Positive patients % Proliferation value is on record for AQGTLSKIFKLGGRDSRSGSPMARR (listed as Homo sapiens) [MBP (146-170)] ?
[reply] 0.00%

[ask] Which Positive patients % Proliferation value is on record for EEDEVSIKEAAEAVV (listed as Homo sapiens) [GDP-L-FS (246-260)] ?
[reply] 4.76%

[ask] Which Positive patients % Proliferation value is on record for MEVGWYRPPFSRVVHLYRNGK (listed as Homo sapiens) [MOG (35-55)] ?
[reply] 1.92%

[ask] Which Positive patients % Proliferation value is on record for YGCTFTAVIPTNVFG (listed as Homo sapiens) [GDP-L-FS (161-175)] ?
[reply] 6.66%

---

# Test system: CSF-infiltrating CD4+ T cells from MS patients
# COND: peptide 10 μM; 105 MS patients; patient positive if mean SI of four wells ≥2 and at least 3 of four wells SI≥2
READOUT LABEL: Positive patients % Proliferation
Note: state the figure and append the unit.

[ask] Which Positive patients % Proliferation value is on record for LSRFSWGAEGQRPGFGYGG (listed as Homo sapiens) [MBP (111-129)] ?
[reply] 0.96%

[ask] Which Positive patients % Proliferation value is on record for PHNSNFGYSYAKRMI (listed as Homo sapiens) [GDP-L-FS (136-150)] ?
[reply] 5.71%

[ask] Which Positive patients % Proliferation value is on record for GQFRVIGPRHPIRALVGDEV (listed as Homo sapiens) [MOG (1-20)] ?
[reply] 0.00%

[ask] Which Positive patients % Proliferation value is on record for HCLGKWLGHPDKFVGI (listed as Homo sapiens) [PLP (139-154)] ?
[reply] 0.96%

[ask] Which Positive patients % Proliferation value is on record for KYLATASTMDHARHGFLPRH (listed as Homo sapiens) [MBP (13-32)] ?
[reply] 0.00%
